# Tested on: Pseudomonas aeruginosa
# experimental-protocol: microbe, parasite or virus in culture
# settings: ATCC 27853, 18 h, ASSAY_TEST Inhibition of Bacterial Growth, detection method Absorption (OD600), MEDIA CAMHB, plate type 384well, NBS, CORNING #3640
# Description: Antibacterial activity against Pseudomonas aeruginosa ATCC 27853 (CO-ADD:GN_042); MIC in CAMBH media using NBS plates, by OD(600)
Structures can show the parent of a compound that is named as a salt.
property-name: MIC

For orientation, consider the following solved cases.
[
  {
    "compound": "CN(C)[C@@H]1C(O)=C(C(N)=O)C(=O)[C@@]2(O)C(O)=C3C(=O)c4c(O)ccc(Cl)c4[C@@](C)(O)[C@H]3C[C@@H]12 [CHLORTETRACYCLINE HYDROCHLORIDE]",
    "property-name": "MIC",
    "endpoint-result": "2.5 µM"
  },
  {
    "compound": "CC1=C2C(=CC(C)(C)[C@@H]2O)C(=O)[C@](C)(O)C12CC2",
    "property-name": "MIC",
    "endpoint-result": "> 10 µM"
  },
  {
    "compound": "CC1Oc2cc3c(-c4c(O)cc(O)c5c(O)c6c(cc45)OC(C)C(C)C6=O)c(O)cc(O)c3c(O)c2C(=O)C1C (centres undefined)",
    "property-name": "MIC",
    "endpoint-result": "> 10 µM"
  }
]

Here is another compound to look at.
Lookup: I would be grateful if you could share the reported MIC for O=c1ccc2nc3ccc(O)cc3oc-2c1 .
Found: > 10 µM

---

# Test system: Pseudomonas aeruginosa
# experimental-protocol: microbe, parasite or virus in culture
# settings: ATCC 27853, 18 h, ASSAY_TEST Inhibition of Bacterial Growth, detection method Absorption (OD600), MEDIA CAMHB, plate type 384well, NBS, CORNING #3640
property-name: MIC

For orientation, consider the following solved cases.
[
  {
    "compound": "COC1=C2C[C@@H](C)C[C@@H](OC)[C@@H](O)[C@H](C)/C=C(\\C)[C@@H](OC(N)=O)[C@H](OC)/C=C\\C=C(/C)C(=O)NC(=CC1=O)C2=O",
    "experimental-system": "Pseudomonas aeruginosa",
    "MIC": "> 10 µM"
  },
  {
    "compound": "CC(=O)C(=O)NC1/C=C(C)\\C=C/C(O)C/C=C(C)\\C=C/C(O)CC2OC(=O)C1(C)C(=O)C2C (stereo unspecified)",
    "experimental-system": "Pseudomonas aeruginosa",
    "MIC": "> 10 µM"
  }
]

Here is another compound to look at.
Lookup: I would be grateful if you could share the reported MIC for COc1cccc2c1C(=O)c1c(O)c3c(c(O)c1C2=O)C[C@@](O)(C(C)=O)C[C@@H]3OC1CC(N)C(O)C(C)O1 (stereo partly specified) .
Found: > 10 µM

---

# Tested on: Pseudomonas aeruginosa
# experimental-protocol: microbe, parasite or virus in culture
# settings: ATCC 27853, 18 h, ASSAY_TEST Inhibition of Bacterial Growth, detection method Absorption (OD600), MEDIA CAMHB, plate type 384well, NBS, CORNING #3640
MIC overview
Field format: number, assumed µM, no unit text.

[
  {
    "compound": "COC1=C(N)C(=O)c2nc(-c3nc(C(=O)O)c(C)c(-c4ccc(OC)c(OC)c4O)c3N)ccc2C1=O [STREPTONIGRIN]",
    "experimental-system": "Pseudomonas aeruginosa",
    "MIC [µM]": 10
  }
]

Lookup: Form field: MIC recorded for CSC1SCC2C(=O)N(C)C(C(C)C)C(=O)OCC(NC(=O)c3cnc4ccccc4n3)C(=O)NC(C)C(=O)N(C)C1C(=O)N(C)C(C(C)C)C(=O)OCC(NC(=O)c1cnc3ccccc3n1)C(=O)NC(C)C(=O)N2C (stereo not given) with Pseudomonas aeruginosa (enter value)
Found: 1.25

Source listed as ChEMBL document CHEMBL4296183.
